Provide the reported solubility kinetic of each item.
- Experimental Conditions: buffer; pH 7.4; 200.0 µM
Entry rule: numbers only, all in µg/mL.

Assign solubility kinetic to the following record: CC(=O)Nc1ccc(C(=O)NCCCOC(C)C)cc1 39.6

Output measured solubility kinetic for this item: Cc1ccc(NC(=S)NC(=O)c2cncc(Br)c2)cc1Cl 2.4

Provide only the value of recorded solubility kinetic for CCCOC(=O)Nc1cc(OC)ccc1[N+](=O)[O-] 5.7

Supply measured solubility kinetic of Cc1cc(O)c(CN2CC=C(c3ccccc3)CC2)cc1C(C)C in your reply. 1.2

# return recorded solubility kinetic for entry C[C@@H](C(=O)Nc1nccs1)N1C(=O)C2CC=CCC2C1=O (some centres undefined) 42.8

Let me know recorded solubility kinetic for CCOc1ccc(Nc2ccc(N3C(=O)CCC3=O)cc2[N+](=O)[O-])cc1 , thanks. 2.3

Please look at this compound and report its solubility kinetic: Cc1nc2ccc(OC(=O)c3ccccc3)cc2s1 2.9

Respond only with solubility kinetic recorded for Nc1ccccc1C(=O)NC12CC3CC(CC(C3)C1)C2 28.7

Look up and report measured solubility kinetic for this entry: CCCC(C)NC(=O)Cc1ccccc1 (centres undefined) 30

Kindly indicate its recorded solubility kinetic. Item: CCC(CC)C(=O)c1c[nH]c(C(=O)NCc2ccccc2OC)c1 0.8

Please supply the value of reported solubility kinetic for the item O=S(=O)(NCCCN1CCOCC1)c1ccc(Cl)s1 48.4

State its solubility kinetic: Cc1ccc(SCC(=O)NC(=O)NC(C)C)c(C)c1 20

# return recorded solubility kinetic for entry O=C(Nc1cccc(NC(=O)c2ccc([N+](=O)[O-])o2)c1)c1ccco1 4.5

Return solubility kinetic (reported value) for this compound: O=C1CN=C(c2cc([N+](=O)[O-])ccc2Cl)c2cc([N+](=O)[O-])ccc2N1 1.6

Annotate the compound CCCC(=NC(C)CC)C1=C(O)CC(c2ccccc2)CC1=O (centres undefined) with its measured solubility kinetic. 39

Consider the compound CCC(Oc1ccccc1OC)C(=O)Nc1ccc2c(c1)OCO2 (centres undefined) . State its measured solubility kinetic. 26.3

---

Kindly supply the reported solubility kinetic values for the records listed here.
- Experimental Conditions: buffer; pH 7.4; 200.0 µM

Determine its reported solubility kinetic: Fc1ccc(Oc2nc(-c3ccccn3)nc3ccccc23)cc1 17.3 µg/mL

// fetch solubility kinetic given entry O=C(NCc1ccco1)c1cc(Cl)nc(Cl)c1 40.3 µg/mL

Return solubility kinetic (reported value) for this molecule: O=C(CCCc1ccccc1)Nc1nccs1 28.5 µg/mL

For the molecule CCC(C)[C@H](NC(=O)N1CCCCCC1)C(=O)O (stereo partly specified) , report solubility kinetic. > 38.5 µg/mL

Supply recorded solubility kinetic for CSc1ncccc1C(=O)OCC(=O)Nc1cccc(S(=O)(=O)N2CCOCC2)c1 here. 34.7 µg/mL

Using the record for Cn1c(SCC(=O)NCC2COc3ccccc3O2)nnc1C(F)(F)F (stereo unspecified) , state its measured solubility kinetic. > 58.3 µg/mL

---

- Experimental Conditions: buffer; pH 7.4; 200.0 µM
# binarize solubility kinetic: threshold 30 µg/mL inclusive, high side Y, low side N

solubility kinetic >= 30 µg/mL for CC(=O)c1cccc(NC(=O)NC(C)c2ccc3c(c2)OCO3)c1 (centres undefined) ? N

Does solubility kinetic meet or surpass 30 µg/mL for CN(C)S(=O)(=O)c1ccc(Cl)c(C(=O)OCC(=O)c2ccco2)c1 ? Y

Would you say Cc1cc(CNC(=O)c2cccc([N+](=O)[O-])c2)c2ccccc2n1 shows solubility kinetic at minimum 30 µg/mL? N

Can NC(=O)c1cc(-c2csc(-c3cccnc3)n2)ccc1O be said to have solubility kinetic at or above 30 µg/mL? N

Check if solubility kinetic >= 30 µg/mL (inclusive). Item: Cc1cccc2cc3ccccc3nc12 N

Does the reported solubility kinetic for O=C1CCC(C(=O)N2CCOCC2)CN1Cc1ccc(Cl)cc1 (centres undefined) fall at or above the 30 µg/mL mark? Y

Exam item: decide whether the reported solubility kinetic for COC(=O)CSc1[nH]c2ccccc2c1[N+](=O)[O-] is at least 30 µg/mL. Y

In plain terms: is recorded solubility kinetic at least 30 µg/mL for Cc1cccn2cc(CCNC(=O)Cc3cccs3)nc12 ? Y

Does Cc1ccc(NC(=O)NCc2ccccn2)c(C)c1 have a reported solubility kinetic of at least 30 µg/mL? Y

Identify whether the reported solubility kinetic of the following compound is 30 µg/mL or greater: CCCc1nc2ccccc2c(=O)n1CCc1ccccc1 N

Decide: solubility kinetic of COCCOC(=O)C1=C(C)NC(=O)NC1c1cccc2ccccc12 (centres undefined) >= 30 µg/mL? Y

In plain terms: is recorded solubility kinetic at least 30 µg/mL for CC(CC(=O)NCCc1ccc(S(N)(=O)=O)cc1)c1ccccc1 (centres undefined) ? Y

Is solubility kinetic for Cc1cc(-c2onc(C)c2C(=O)O)no1 at or above 30 µg/mL? Y

solubility kinetic >= 30 µg/mL for COc1ccc(S(N)(=O)=O)cc1C(=O)OCC1CCCCC1 ? Y

Determine whether this compound has solubility kinetic no lower than 30 µg/mL: CC(NC(=O)COC(=O)c1cccc(S(=O)(=O)N2CCCC2)c1)c1ccccc1 (centres undefined) N

Form field: solubility kinetic at least 30 µg/mL? Entry: CC(C)C(=O)Nc1cccc(-c2nc3ncccc3o2)c1 Y

For this compound, is measured solubility kinetic 30 µg/mL or higher? c1ccc2c3c(c(CN4CCCC4)cc2c1)COC3 Y

hey, is solubility kinetic for this one >= 30 µg/mL? O=C(Nc1nc(-c2cccnc2)cs1)c1ccccc1[N+](=O)[O-] N

# check: solubility kinetic of CC(=O)c1ccc(NC(=S)N2CCN(c3ccccn3)CC2)cc1 is greater than or equal to 30 µg/mL N

Tell me whether solubility kinetic is at least 30 µg/mL here: CC1C(=O)Nc2ccccc2N1C(=O)c1ccc(Cl)cc1 (centres undefined) N

Identify whether the reported solubility kinetic of the following compound is 30 µg/mL or greater: CCOc1ccccc1NC(=O)Cn1c(=O)oc2ccccc21 N

Decide: solubility kinetic of Cc1nc2sc(C(=O)OC(C)C)c(N)c2c(C)c1C >= 30 µg/mL? N

Determine whether measured solubility kinetic meets or exceeds 30 µg/mL for CCOC(=O)C1=C(C)Nc2ccccc2N=C1NC(=O)C1CCN(C(=O)c2ccccc2C)CC1 Y

Please tell me: is the compound CCOc1ccc2nc(NC(=O)C3(C)CC3(Br)Br)sc2c1 (centres undefined) at or over 30 µg/mL in terms of solubility kinetic? N

---

- Experimental Conditions: buffer; pH 7.4; 200.0 µM
Quantity: solubility kinetic (µg/mL)
Your answer is read as µg/mL, so omit the unit and give the number.

Report solubility kinetic for Cc1ccc(OCC(=O)O/N=C(\N)c2ccncc2)c(C)c1 30.9

Give solubility kinetic for the following compound: Brc1ccccc1OCCCOc1cccc2cccnc12 1.5

Please report the measured solubility kinetic for CC(C)(C)NC(=O)c1cccc2c1-c1ccccc1C2=O 29.8

Using the record for CCCC1c2ccsc2CCN1C(=S)NC (configuration not stated) , state its measured solubility kinetic. 29.8

Given the compound CC1(C2CC2)NC(=O)N(CC(=O)N2CCN(c3cccc(C(F)(F)F)c3)CC2)C1=O (configuration not stated) , write its reported solubility kinetic. 21.6

// fetch solubility kinetic given entry O=C(CCl)Nc1sccc1C(=O)c1ccccc1 3.6

Given the compound CC1c2ccsc2CCN1C(=O)NC(=O)c1ccc(Cl)cc1 (configuration not stated) , write its reported solubility kinetic. 1.8

Check the records and state solubility kinetic for Cl.O=C(O)C1CCN(Cc2ccccn2)CC1 34.4

---

- Experimental Conditions: buffer; pH 7.4; 200.0 µM
Quantity: solubility kinetic (µg/mL)
Provide the reading as a plain figure in µg/mL.

Quote solubility kinetic reported for COc1ccc2nc(C)cc(Nc3ccc(C(=O)O)cc3)c2c1 please. 40.5

Determine its reported solubility kinetic: c1ccc(CN2CCOCCOCCOCCOCC2)cc1 43.2

For the molecule O=C(COc1ccccc1)Nc1ccncc1Cl , give its reported solubility kinetic. 32.3

---

- Experimental Conditions: buffer; pH 7.4; 200.0 µM
Quantity: solubility kinetic (µg/mL)
# number only, unit µg/mL dropped from output

For the compound CC1CC(C)CN(C(=O)COC(=O)c2ccc(S(=O)(=O)N(C)c3ccccc3)cc2)C1 (configuration not stated) , give its measured solubility kinetic value. 7.8

Using known records, supply solubility kinetic for CC(C)NC(=O)c1cccc2c1-c1ccccc1C2=O 13.3

Kindly indicate its recorded solubility kinetic. Item: CCc1c(C)c2cc(Cl)c(O)c(CN3CCCC3)c2oc1=O 30.5

Give solubility kinetic for O=c1nc(/C=C/c2ccc(Cl)cc2Cl)cc(C(F)(F)F)[nH]1 7.3

Complete the entry with solubility kinetic for Cc1cc(C(=O)OCC(=O)N2CCOCC2)c(C)n1-c1ccccc1 48.6

Please list solubility kinetic recorded for the compound CCOC(=O)N1CCN(S(=O)(=O)c2ccc(C)cc2)CC1 28.1

Write down solubility kinetic measured for item CN(C)C(=S)Nc1ccc(Br)cc1Cl 23.4

// fetch solubility kinetic given entry O=C(COC(=O)COc1ccc(Br)cc1)NC1CCCC1 13.3
